Reference source: patent US20020177126A1

# System: F protein (RSV F glycoprotein immobilised on the BIAcore sensor chip) (respiratory syncytial virus (RSV), UniProt P03420 26-524)
# Sequence (P03420 26-524): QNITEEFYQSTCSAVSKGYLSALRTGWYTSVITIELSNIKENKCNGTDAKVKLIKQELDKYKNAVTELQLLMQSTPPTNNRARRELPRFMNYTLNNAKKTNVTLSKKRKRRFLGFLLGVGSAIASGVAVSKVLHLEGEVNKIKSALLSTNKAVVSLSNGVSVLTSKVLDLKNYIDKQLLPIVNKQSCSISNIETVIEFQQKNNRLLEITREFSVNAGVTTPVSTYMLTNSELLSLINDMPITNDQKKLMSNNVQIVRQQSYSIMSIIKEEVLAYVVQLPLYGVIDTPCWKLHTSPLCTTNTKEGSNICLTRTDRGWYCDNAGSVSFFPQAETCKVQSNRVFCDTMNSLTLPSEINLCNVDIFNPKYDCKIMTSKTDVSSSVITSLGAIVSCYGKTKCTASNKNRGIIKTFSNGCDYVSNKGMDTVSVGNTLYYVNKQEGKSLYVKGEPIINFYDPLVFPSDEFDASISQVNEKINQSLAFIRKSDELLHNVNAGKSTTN
# Method: BIAcore, immobilised F protein
Quantity name: koff (s⁻¹)
Write the answer as a number in s⁻¹, unit excluded.

Example results:
I would be grateful if you could share the reported koff for A13a11 (Fab) (Fab, V domains shown) VH: QVTLRESGPALVKPTQTLTLTCTFSGFSLSTAGMSVGWIRQPPGKALEWLADIWWDDKKHYNPSLKDRLTISKDTSKNQVVLKVTNMDPADTATYYCARDMIFNWYFDVWGAGTTVTVSS VL: DIQMTQSPSTLSASVGDRVTITCSPSSRVGYMHWYQQKPGKAPKLLIYDTYRHSSGVPSRFSGSGSGTEFTLTISSLQPDDFATYYCFQGSGYPFTFGGGTKLEIK .
0.00025

And A12a6 (Fab) (Fab, V domains shown) VH: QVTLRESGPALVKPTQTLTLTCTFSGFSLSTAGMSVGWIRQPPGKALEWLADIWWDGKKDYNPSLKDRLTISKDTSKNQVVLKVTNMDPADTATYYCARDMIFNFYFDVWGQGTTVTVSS VL: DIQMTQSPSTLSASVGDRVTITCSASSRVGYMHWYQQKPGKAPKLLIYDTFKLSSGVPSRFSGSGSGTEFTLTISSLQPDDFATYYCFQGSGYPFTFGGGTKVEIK ?
0.00023

What about this binder? A13c4 (Fab) (Fab, V domains shown) VH: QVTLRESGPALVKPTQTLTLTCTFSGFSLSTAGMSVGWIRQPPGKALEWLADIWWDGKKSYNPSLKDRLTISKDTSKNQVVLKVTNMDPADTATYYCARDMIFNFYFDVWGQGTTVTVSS VL: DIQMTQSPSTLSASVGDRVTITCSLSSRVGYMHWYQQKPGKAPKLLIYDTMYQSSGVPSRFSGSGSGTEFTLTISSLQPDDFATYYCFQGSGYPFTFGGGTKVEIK
0.00028

***
# input binder: P12f2 (Fab) (Fab, V domains shown, also called Pf12; P1212) VH: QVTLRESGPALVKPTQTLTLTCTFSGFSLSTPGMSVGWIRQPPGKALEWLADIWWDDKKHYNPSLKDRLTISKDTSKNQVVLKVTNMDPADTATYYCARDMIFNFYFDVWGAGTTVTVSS VL: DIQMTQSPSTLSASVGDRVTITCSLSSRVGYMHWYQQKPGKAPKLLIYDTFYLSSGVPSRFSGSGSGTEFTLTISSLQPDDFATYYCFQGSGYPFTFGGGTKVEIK ; wanted: its koff
0.000282

Likewise for P12f4 (Fab) (Fab, V domains shown) VH: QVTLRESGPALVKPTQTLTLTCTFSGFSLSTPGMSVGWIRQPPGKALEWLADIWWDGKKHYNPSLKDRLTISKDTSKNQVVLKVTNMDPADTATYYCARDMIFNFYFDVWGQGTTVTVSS VL: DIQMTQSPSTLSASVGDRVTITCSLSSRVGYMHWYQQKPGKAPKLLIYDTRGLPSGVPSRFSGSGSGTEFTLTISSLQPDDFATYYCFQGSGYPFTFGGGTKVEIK ?
0.000299
